Listed compounds paired with reported pIC50
# System: L. amazonensis promastigotes
# PROCEDURE_DETAILS: Antipromastigote activity, MTT assay
# Assay type: cell-based, Leishmania amazonensis
# STUDY_CONDITIONS: Leishmania amazonensis; L. amazonensis promastigotes, 24 h, MTT, IC50 ± SEM
Lab note — pIC50 values are minus log10 of concentrations in M.

COMPOUND: C[C@@H]1[C@H](O)[C@@H](C)/C=C/C=C/C=C/C=C/C=C/C=C/C=C/[C@H](O[C@@H]2O[C@H](C)[C@@H](O)[C@H](N)[C@@H]2O)C[C@@H]2O[C@](O)(C[C@@H](O)C[C@@H](O)[C@H](O)CC[C@@H](O)C[C@@H](O)CC(=O)O[C@H]1C)C[C@H](O)[C@H]2C(=O)O [AmB, Amphotericin B, reference compound]
TESTED_TARGET: L. amazonensis promastigotes
OBSERVED: 6.17

Shifting focus to the compound that follows.
Which value of pIC50 has been reported for "COc1ccc(C(=O)/C=C/c2c(Cl)cccc2Cl)c2c(OC)cccc12" in the records?
4.03

###

# Test system: L. amazonensis promastigotes
# PROCEDURE_DETAILS: Antipromastigote activity, MTT assay
# Type: cell-based, Leishmania amazonensis
# STUDY_CONDITIONS: Leishmania amazonensis; L. amazonensis promastigotes, 24 h, MTT, IC50 ± SEM
pIC50: −log10 of the molar value.
OBSERVATION_TYPE: pIC50

Use these answered entries as a reference point.
MOLECULE: COc1ccc(C(=O)/C=C/c2ccc(Cl)cc2Cl)c2c(OC)cccc12 [Compound 4e]
OBSERVATION_TYPE: pIC50
OBSERVED: 4.42

MOLECULE: COc1ccc(C(=O)/C=C/c2ccc(Br)cc2)c2c(OC)cccc12 [Compound 4i]
OBSERVATION_TYPE: pIC50
OBSERVED: 4.61

MOLECULE: COc1ccc(C(=O)/C=C/c2cccc([N+](=O)[O-])c2)c2c(OC)cccc12 [Compound 4g]
OBSERVATION_TYPE: pIC50
OBSERVED: 4.84

(P) COc1ccc(C(=O)/C=C/c2ccccc2)c2c(OC)cccc12 [Compound 4h]
(Q) COc1ccc(C(=O)/C=C/c2ccc(Cl)c(Cl)c2)c2c(OC)cccc12 [Compound 4c]
(R) COc1ccc(/C=C/C(=O)c2ccc(OC)c3cccc(OC)c23)cc1 [Compound 4a]
(S) COc1cccc(/C=C/C(=O)c2ccc(OC)c3cccc(OC)c23)c1 [Compound 4b]
(T) COc1ccc(C(=O)/C=C/c2ccc([N+](=O)[O-])cc2)c2c(OC)cccc12 [Compound 4f]
Sort (5 molecules) by pIC50: min first. Output the labels ranked as instructed.
R, S, P, Q, T
